Data provenance: PubChem BioAssay AID624169

Target Of Assay: 5-hydroxytryptamine receptor 2A (Mus musculus)
Experiment: mouse Htr2a agonists via beta-arrestin recruitment, primary screen, cell-based, luminescence (AID 624169);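 further: 0% = plate median of compound wells and 100% = 30 µM serotonin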
Condition Notes: CHO-K1 mHTR2A beta-arrestin complementation, at 7.6 µM, hits give high values, percent of 30 µM serotonin response
The whole screen tested about 360,000 compounds, of which about 2,400 (0.67%) were called active. The entries come from a sample that favours actives as a whole.
# reported activation; entries follow
Write it as a number; the unit % goes unstated.

Worked examples follow.
{"columns": ["Compound", "activation [%]"],
 "data": [
  ["O=C(c1ccc(NS(=O)(=O)c2ccc3[nH]c(=O)[nH]c3c2)cc1)N1CCCCC1", 2.95],
  ["CCCCNS(=O)(=O)c1ccc2nc(SCC(=O)Nc3cc(C)cc(C)c3)[nH]c2c1", 12.2],
  ["Cc1cc(C)cc(C(=O)N(CCc2ccccc2)C2=CC3CCC(C2)N3C)c1 (stereo not given)", -10.4],
  ["COC(=O)c1ccc(S(=O)(=O)NCc2ccccc2)n1C", -2.3]
]}

Form field activation, entry CCCN(CCc1ccccc1)C1CCc2c(O)cccc2C1 (stereo not given) : 50.6

# activation of COCc1cc(=O)oc2cc(NS(=O)(=O)c3ccc(C)cc3)ccc12 = 6.31

Field activation (entry COc1cc(OC)c(OC)cc1CN1CCN(C(=O)c2cccc3ccccc23)CC1 ) reads 0.49

For reference, reported activation for COc1cccc(OC)c1C(=O)N1CCN(Cc2ccccc2F)CC1 stands at 2

// activation value for COc1ccccc1CN1CCN(Cc2cc(OC)c(OC)cc2OC)CC1 : 25.8

activation in this record for CC(=O)c1ccc(NC(=O)C(C)OC(=O)c2ccc(NS(=O)(=O)c3ccc4[nH]c(=O)[nH]c4c3)cc2)cc1 (stereo not given) : -1.56

---

Target Of Assay: 5-hydroxytryptamine receptor 2A (Mus musculus) (UniProt P35363)
Sequence (P35363 whole entry, looked up): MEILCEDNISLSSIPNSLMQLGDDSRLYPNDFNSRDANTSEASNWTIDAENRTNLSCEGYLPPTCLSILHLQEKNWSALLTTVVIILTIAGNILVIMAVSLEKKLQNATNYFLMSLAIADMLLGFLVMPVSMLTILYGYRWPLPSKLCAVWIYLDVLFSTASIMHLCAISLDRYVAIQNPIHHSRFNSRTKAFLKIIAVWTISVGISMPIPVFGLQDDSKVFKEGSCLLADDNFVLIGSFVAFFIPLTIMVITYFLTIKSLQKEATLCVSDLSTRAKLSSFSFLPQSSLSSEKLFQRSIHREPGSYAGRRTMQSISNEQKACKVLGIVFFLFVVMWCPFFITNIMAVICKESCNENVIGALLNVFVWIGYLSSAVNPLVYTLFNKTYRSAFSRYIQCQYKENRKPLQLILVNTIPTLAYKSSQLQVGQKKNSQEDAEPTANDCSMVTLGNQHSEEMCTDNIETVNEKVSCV
Experiment: mouse Htr2a agonists via beta-arrestin recruitment, primary screen, cell-based, luminescence (AID 624169);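 further: 0% = plate median of compound wells and 100% = 30 µM serotonin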
Condition Notes: CHO-K1 mHTR2A beta-arrestin complementation, at 7.6 µM, hits give high values, percent of 30 µM serotonin response
The whole screen tested about 360,000 compounds, of which about 2,400 (0.67%) were called active. For the sample, actives were picked, then their nearest neighbours and some compounds at random.
Below, each of the compounds is paired with its reported activation value.
Give the quantity in %, number only.

{"columns": ["Compound", "Target Of Assay", "Quantity Kind", "Endpoint Value"],
 "data": [
  ["O=[N+]([O-])c1ccc2oc(-c3cccc(O)c3)nc2c1", "5-hydroxytryptamine receptor 2A (Mus musculus) (UniProt P35363)", "activation", -2.7],
  ["CS(=O)(=O)c1ccc2nc(NC(=O)C3CCCCC3)sc2c1", "5-hydroxytryptamine receptor 2A (Mus musculus) (UniProt P35363)", "activation", 14.9],
  ["Cc1c(C(C)(C)O)[nH]c2ccc(C#N)cc12", "5-hydroxytryptamine receptor 2A (Mus musculus) (UniProt P35363)", "activation", 3.5]
]}

Lab book: activation of Cc1nc2ccc(NC(=O)C3CCCCC3)cc2s1 noted as 5.67

The compound identified as CC(=O)NCC(=O)N(C)C(C(=O)Nc1ccc2c(c1)OCCO2)c1ccccc1 (stereo unspecified) registered its activation at 1.2

# activation of COc1ccc(C(=O)Nc2c(N)nc(SCC(=O)N3CCC(C)CC3)[nH]c2=O)cc1OC = 3.82
